Entries and their IC50
Tested on: SK-MEL-2
Experiment: Cytotoxicity against human SK-MEL-2 cells by SRB assay
Assay type: functional, cell-based

Form field IC50, entry "COc1cc(/C=C/C(=O)NC[C@@H](O)c2ccc(O)cc2)ccc1O" : > 30 µM

New cases:
Form field IC50, entry COc1cc(/C=C/C(=O)NCCc2ccc(O)cc2)ccc1O [N-TRANS-FERULOYL TYRAMINE] : > 30 µM

Form field IC50, entry "COc1cc(CCCO)cc(OC)c1OC" : > 30 µM

###

Test system: SK-MEL-2
Experiment: Cytotoxicity against human SK-MEL-2 cells by SRB assay
Type: functional, cell-based
Entries and their IC50
Return type: number; implicit unit µM.

Form field IC50, entry "COc1cc(/C=C\CO)ccc1O" : 14.7

Form field IC50, entry "COc1cc(CCCO)ccc1O[C@H](C)[C@H](O)c1cc(OC)c(OC)c(OC)c1" : 14.2

Form field IC50, entry COc1cccc2c1C(=O)c1c(O)c3c(c(O)c1C2=O)C[C@@](O)(C(=O)CO)C[C@@H]3O[C@H]1C[C@H](N)[C@H](O)[C@H](C)O1 [DOXORUBICIN] : 0.004

Note: attention shifts to another entry.
Form field IC50, entry "COc1ccc(CCCO)cc1OC" : 21.9

Reference source: ChEMBL document CHEMBL2086234
